# system_tested: ROCK2 (Homo sapiens, UniProt O75116)
# Construct: purchased Upstate/Chemicon 14-451
# Sequence (O75116 11-552 limits assumed): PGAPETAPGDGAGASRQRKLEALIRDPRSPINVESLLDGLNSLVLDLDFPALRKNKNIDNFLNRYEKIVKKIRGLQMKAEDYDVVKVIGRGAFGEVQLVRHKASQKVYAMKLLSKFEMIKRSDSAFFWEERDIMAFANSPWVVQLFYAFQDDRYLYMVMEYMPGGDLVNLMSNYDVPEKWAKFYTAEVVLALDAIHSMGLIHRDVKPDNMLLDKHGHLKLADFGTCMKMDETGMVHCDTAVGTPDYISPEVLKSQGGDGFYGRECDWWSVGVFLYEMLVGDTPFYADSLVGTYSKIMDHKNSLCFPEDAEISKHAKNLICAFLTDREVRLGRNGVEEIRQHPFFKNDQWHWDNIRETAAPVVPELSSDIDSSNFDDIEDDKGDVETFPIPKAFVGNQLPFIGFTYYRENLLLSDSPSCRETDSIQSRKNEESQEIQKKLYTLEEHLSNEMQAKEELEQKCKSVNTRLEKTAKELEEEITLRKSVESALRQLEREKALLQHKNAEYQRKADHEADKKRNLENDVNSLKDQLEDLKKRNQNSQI
# assay_remarks: Rho kinase inhibition assay (IMAP fluorescence polarization), ROCK2;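 also: kinase reaction started with 10 µM ATP and run 60 min at room temperature, then phosphorylated substrate captured on IMAP beads for 30 min and fluorescence polarization read in mP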
# Format: biochemical
# run_parameters: 10 μM ATP; read-out: ROCK2 Ki, Avg
pKi: −log10 of the molar value.
property_label: pKi

1. c1cc(CN2CCC[C@@H](Nc3ccc4[nH]ncc4c3)C2)cc(-c2ccco2)c1 [Compound 1.250]    7.34
2. NCc1cccc(CN2CCC[C@H](Nc3ccc4[nH]ncc4c3)C2)c1 [Compound 1.184]    7.04
3. Cc1cccc(CN2CCC[C@H](Nc3ccc4[nH]ncc4c3)C2)c1 [Compound 1.171]    7.80
4. c1cn(-c2ccc(CN3CCC[C@H](Nc4ccc5[nH]ncc5c4)C3)cc2)cn1 [Compound 1.255]    6.45
5. NC(=O)Cn1ccc2ccc(CN3CC[C@@H](Nc4cccc5cnccc45)C3)cc21 [Compound 2.058]    8.48
6. c1cc(N[C@@H]2CCN(Cc3ccc4occc4c3)C2)c2ccncc2c1 [Compound 2.055]    8.19
7. CS(=O)(=O)c1ccc(CN2CC[C@@H](Nc3ccc4[nH]ncc4c3)C2)cc1 [Compound 1.244]    6.86
8. OCc1ccc(CN2CCC[C@@H](Nc3ccc4[nH]ncc4c3)C2)cc1 [Compound 1.232]    7.68
9. CC(=O)NCc1cccc(CN2CCC[C@H](Nc3ccc4[nH]ncc4c3)C2)c1 [Compound 1.197]    8.30
10. NC(=O)Cn1ccc2ccc(CN3CCC[C@@H](Nc4ccc5[nH]ncc5c4)C3)cc21 [Compound 1.106]    7.82
11. c1ccc(CN2CC[C@@H](Nc3cccc4cnccc34)C2)cc1 [Compound 2.046]    8.25
12. CS(=O)(=O)Cc1cccc(CN2CCC[C@@H](Nc3ccc4[nH]ncc4c3)C2)c1 [Compound 1.139]    7.63
13. C#Cc1ccc(CN2CCCC(Nc3ccc4[nH]ncc4c3)C2)cc1 (stereo not shown) [Compound 1.034]    8.28
14. NC(=O)COc1cccc(CN2CC[C@@H](Nc3cccc4cnccc34)C2)c1 [Compound 2.040]    7.60
15. C#Cc1ccc(CN2CCC[C@@H](Nc3ccc4[nH]ncc4c3)C2)cc1 [Compound 1.076]    8.59
16. Cc1c(CN2CCC[C@H](Nc3ccc4[nH]ncc4c3)C2)cccc1NS(C)(=O)=O [Compound 1.274]    7.97
17. c1c[nH]c(CN2CCC[C@H](Nc3ccc4[nH]ncc4c3)C2)n1 [Compound 1.256]    7.07
18. Cc1ccc(CN2CCC[C@H](Nc3ccc4[nH]ncc4c3)C2)c(C)c1 [Compound 1.155]    8.15
19. OCCOc1cccc(CN2CC[C@@H](Nc3cccc4cnccc34)C2)c1 [Compound 2.039]    8.17
20. C=Cc1ccc(CN2CCC[C@@H](Nc3ccc4[nH]ncc4c3)C2)cc1 [Compound 1.208]    7.89
21. c1cc2c(cc1CN1CCC[C@@H](Nc3ccc4[nH]ncc4c3)C1)OCCO2 [Compound 1.177]    7.74
22. Cc1cccc(CN2CCC[C@H](Nc3ccc4[nH]ncc4c3)C2)c1C [Compound 1.156]    7.89
23. COc1c(CN2CCC[C@H](Nc3ccc4[nH]ncc4c3)C2)cccc1NS(C)(=O)=O [Compound 1.280]    7.42
24. FC(F)(F)c1cccc(CN2CCC[C@H](Nc3ccc4[nH]ncc4c3)C2)c1 [Compound 1.169]    7.47
25. CSc1ccc(CN2CCC[C@H](Nc3cccc4cnccc34)C2)cc1 [Compound 2.051]    5.93
26. O=C(OCCOc1cccc(CN2CCC[C@H](Nc3ccc4[nH]ncc4c3)C2)c1)c1ccccc1 [Compound 1.224]    7.11
27. Cn1c(CN2CC[C@@H](Nc3cccc4cnccc34)C2)nc2ccccc21 [Compound 2.075]    7.66
28. CS(=O)(=O)Nc1cccc(CN2CCCC(Nc3ccc4[nH]ncc4c3)C2)c1 (stereo not shown) [Compound 1.051]    8.42
29. CS(=O)(=O)Cc1cccc(CN2CCC[C@H](Nc3ccc4[nH]ncc4c3)C2)c1 [Compound 1.157]    8.06
30. c1cc2cc(CN3CCC[C@H](Nc4ccc5[nH]ncc5c4)C3)ccc2[nH]1 [Compound 1.149]    8.38
31. Cc1ccc(CN2CC[C@@H](Nc3cccc4c(=O)[nH]ccc34)C2)cc1OCCO [Compound 2.093]    6.89
32. c1cc(N[C@@H]2CCN(Cc3cnccn3)C2)c2ccncc2c1 [Compound 2.086]    6.45
33. Cc1ccc(CN2CCC[C@H](Nc3cccc4cnccc34)C2)cc1 [Compound 2.045]    7.06
34. O=C(O)COc1cccc(CN2CCC[C@H](Nc3ccc4[nH]ncc4c3)C2)c1 [Compound 1.196]    7.40
